# Tested on: AncSZ
# method: phosphorylation enrichment, bacterial display (enrichment ratio); higher = better substrate or ligand; peptides without Tyr show the background;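 further: 11-residue human phosphosite peptides and single-mutation variants displayed on the E. coli surface, counted by deep sequencing, each peptide's frequency after selection divided by its frequency in the unselected input library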;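 further: frequency after pTyr selection over input frequency; kinase dosed for 20-30% of maximal phosphorylation in three min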
Label scheme for phosphorylation enrichment: low range (below 0.7), mid range (0.7 to below 0.9), high range (0.9 or more)

Would you please look over these solved cases?
sequenceString	assignedCategory
KHMADYPDCKY [SOX11_Y113_Y116C]	low range
QGIPWYHSQSP [FOXF1_Y331_R330W]	low range
RPSGRYPVARR [SHANK3_Y1569]	mid range
HNLPIYEGYAL [ACTA1_Y168_V165L]	high range

Next sequence, please.
input: State the class of the sequence shown: FAREGYSALPQ [SARS2_Y52_YF]
output: low range

###

# target: EPHB1 (UniProt P54762)
# Sequence (P54762 whole entry, looked up): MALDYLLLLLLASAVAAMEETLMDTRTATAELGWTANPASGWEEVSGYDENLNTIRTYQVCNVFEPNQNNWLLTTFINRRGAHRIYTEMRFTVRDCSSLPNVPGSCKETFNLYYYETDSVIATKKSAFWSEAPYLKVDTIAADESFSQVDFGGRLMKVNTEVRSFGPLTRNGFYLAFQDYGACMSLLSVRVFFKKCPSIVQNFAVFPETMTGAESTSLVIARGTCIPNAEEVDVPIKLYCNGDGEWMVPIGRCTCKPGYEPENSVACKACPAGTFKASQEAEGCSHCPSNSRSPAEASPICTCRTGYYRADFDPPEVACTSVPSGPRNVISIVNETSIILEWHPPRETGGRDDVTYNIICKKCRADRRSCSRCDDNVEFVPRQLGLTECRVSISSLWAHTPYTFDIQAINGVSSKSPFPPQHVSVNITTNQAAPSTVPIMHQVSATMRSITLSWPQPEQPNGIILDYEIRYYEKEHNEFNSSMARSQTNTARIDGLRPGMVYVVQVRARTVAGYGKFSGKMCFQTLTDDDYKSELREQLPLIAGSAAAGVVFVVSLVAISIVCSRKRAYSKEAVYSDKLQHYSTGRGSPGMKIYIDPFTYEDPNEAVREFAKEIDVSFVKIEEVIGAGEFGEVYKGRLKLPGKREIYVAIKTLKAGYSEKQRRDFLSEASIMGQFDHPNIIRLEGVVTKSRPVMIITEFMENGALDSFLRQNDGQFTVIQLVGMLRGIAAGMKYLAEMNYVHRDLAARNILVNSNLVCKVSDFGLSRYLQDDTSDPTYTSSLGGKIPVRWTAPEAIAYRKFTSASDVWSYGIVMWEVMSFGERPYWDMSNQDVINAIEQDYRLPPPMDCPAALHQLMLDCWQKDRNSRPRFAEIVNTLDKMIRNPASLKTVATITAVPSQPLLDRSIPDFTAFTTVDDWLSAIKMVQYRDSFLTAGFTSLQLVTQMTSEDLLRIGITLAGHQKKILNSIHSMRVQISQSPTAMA
# method: phosphorylation enrichment, bacterial display (enrichment ratio); higher = better substrate or ligand; peptides without Tyr show the background
Please use condition met whenever phosphorylation enrichment is not below 0.6, and condition not met whenever it is.

Before answering, review these 4 worked examples.
sequenceString	assignedCategory
FRASFYRRGDR [LTK_Y677_YF]	condition not met
ISGLKYPVSQQ [BTK_Y375_R372G]	condition not met
FIRRDYEACKA [BBS4_Y48_K46R_YF]	condition not met
PYSEPYADYGG [APBA1_Y187]	condition met

input: Check the entry MHDKEYFSVHN [MET_Y1234_Y1230H_YF] : does phosphorylation enrichment equal or exceed 0.6?
output: condition not met

input: Record PGQRVYVVAER [SHH_Y316] ; criterion: phosphorylation enrichment no lower than 0.6. Met?
output: condition met

input: Given ELELLYPDRNS [NYX_Y284_L285P] , state whether its phosphorylation enrichment is at least 0.6.
output: condition not met

input: Could you tell me if the measured phosphorylation enrichment of GQECKYPPTQD [METAP2_Y137_E136K] reaches 0.6 or more?
output: condition not met

input: phosphorylation enrichment >= 0.6 for YISLIYTNYEV [GSTP1_Y109_A114V] ?
output: condition met

input: Would you say FASVEYQEALS [GALNS_Y461_A459V] shows phosphorylation enrichment at minimum 0.6?
output: condition met

input: Does KAESWYQTKFE [KRT75_Y342_E337K_YF] have a reported phosphorylation enrichment of at least 0.6?
output: condition not met

input: Does ATPKGYERDAS [OTC_Y223_P225R] have a reported phosphorylation enrichment of at least 0.6?
output: condition not met

input: Given the entry ALKKPYGVLFK [RPF2_Y59_YF] , answer whether its phosphorylation enrichment meets or surpasses 0.6.
output: condition not met

input: I'd appreciate it if you could say whether DSSIRYLQEIH [FGG_Y135_Y140H] has phosphorylation enrichment at least equal to 0.6.
output: condition not met

input: phosphorylation enrichment >= 0.6 for CSRHFYQLTKL [AR_Y858_R856H] ?
output: condition not met

input: Is phosphorylation enrichment for ANFAKYGNPNE [BCHE_Y505] at or above 0.6?
output: condition not met

input: Hello, I need to know if KLKEKYEKDIA [HMGB1_Y155] has measured phosphorylation enrichment not below 0.6. Thanks!
output: condition not met

input: Quick check, phosphorylation enrichment >= 0.6? TRLAQYDSNSK [BMX_Y216_S212R]
output: condition not met

input: Is phosphorylation enrichment at least 0.6? Consider RSAGKYDVFLI [MECP2_Y120_YF]
output: condition met

input: Kindly determine if phosphorylation enrichment recorded for NKHTNYTMEHI [ACTN1_Y708] is above or exactly 0.6.
output: condition not met

input: Confirm if phosphorylation enrichment reported for the sequence AGDGRYEVLFL [SEMA3F_Y478_A474G] is 0.6 or above.
output: condition met

input: Has QQLQGYIPSNF [FRK_Y99_YF] a recorded phosphorylation enrichment greater than or equal to 0.6?
output: condition met

input: Form field: phosphorylation enrichment at least 0.6? Entry: QGIPWYHSQSP [FOXF1_Y331_R330W]
output: condition not met

input: Entry SEQNNYSRVAN [CWC22_Y797_R794Q] : is its phosphorylation enrichment no less than 0.6?
output: condition met

input: Hello, I need to know if KASRKYFAMKI [AKT3_Y173_G171R_YF] has measured phosphorylation enrichment not below 0.6. Thanks!
output: condition not met
